study-target: AdipoR1 (Homo sapiens)
Construct: The cDNAs encoding full-length of AdipoR1 or AdipoR2 were then sub-cloned into the mammalian expression vector pBEX and pcDNA3.1–Myc-His(+); His (C); Myc (C); made in house; host or cells: CHO cells
Sequence (Q96A54 1-375): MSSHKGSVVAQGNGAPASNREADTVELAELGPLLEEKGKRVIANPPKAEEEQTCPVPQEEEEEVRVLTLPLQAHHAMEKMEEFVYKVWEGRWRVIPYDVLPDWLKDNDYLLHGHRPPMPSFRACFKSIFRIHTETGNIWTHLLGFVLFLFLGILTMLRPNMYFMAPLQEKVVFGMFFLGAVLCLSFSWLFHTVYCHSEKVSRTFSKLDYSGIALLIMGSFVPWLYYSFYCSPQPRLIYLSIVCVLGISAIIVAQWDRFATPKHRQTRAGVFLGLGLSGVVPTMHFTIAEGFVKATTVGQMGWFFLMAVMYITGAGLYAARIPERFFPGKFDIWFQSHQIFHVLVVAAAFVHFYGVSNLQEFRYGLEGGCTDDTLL
protocol-description: Competitive FP assay, displacement of probe 1 from AdipoR1
Assay type: binding
reported-conditions: primary screen; 2 µM receptor, 100 nM probe 1, 30 min, 25°C; read-out: IC50 vs AdipoR1 (µM) Primary screen
IC50 for assorted compounds

[
  {
    "compound": "CN(C)Cc1c[nH]c2ccccc12 [Compound 9, Gramine]",
    "study-target": "AdipoR1 (Homo sapiens)",
    "IC50": "4.5 µM"
  },
  {
    "compound": "C=C1C(=O)O[C@H]2[C@H]1CC/C(C)=C/CC[C@@]1(C)O[C@@H]21 [Compound 7, Parthenolide]",
    "study-target": "AdipoR1 (Homo sapiens)",
    "IC50": "> 5 µM"
  },
  {
    "compound": "COc1cc(C[C@H]2C(=O)OC[C@@H]2Cc2ccc(OC)c(OC)c2)ccc1O [Compound 2, (-)-Arctigenin]",
    "study-target": "AdipoR1 (Homo sapiens)",
    "IC50": "2.6 µM"
  },
  {
    "compound": "O=c1cc(-c2ccccc2)oc2cc(O)cc(O)c12 [Compound 8, Chrysin]",
    "study-target": "AdipoR1 (Homo sapiens)",
    "IC50": "> 5 µM"
  }
]

###

study-target: AdipoR2 (UniProt Q86V24)
Sequence (Q86V24 whole entry): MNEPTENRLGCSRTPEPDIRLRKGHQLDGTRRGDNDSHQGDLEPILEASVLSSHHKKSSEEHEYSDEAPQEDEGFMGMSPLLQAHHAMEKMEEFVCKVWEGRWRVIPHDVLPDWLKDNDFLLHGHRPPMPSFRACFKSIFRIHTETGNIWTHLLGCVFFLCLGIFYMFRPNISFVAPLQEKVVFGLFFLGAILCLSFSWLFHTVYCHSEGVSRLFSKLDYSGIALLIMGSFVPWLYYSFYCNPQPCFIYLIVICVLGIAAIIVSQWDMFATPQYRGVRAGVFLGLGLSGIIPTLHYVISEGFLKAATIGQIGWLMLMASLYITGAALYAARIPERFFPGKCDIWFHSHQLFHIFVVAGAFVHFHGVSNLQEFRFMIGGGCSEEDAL
protocol-description: Competitive FP assay, displacement of probe 1 from AdipoR2
Type: binding, human
reported-conditions: primary screen; 2 µM receptor, 100 nM probe 1, 30 min, 25°C; read-out: IC50 vs AdipoR2 (µM) Primary screen
IC50 for assorted compounds

[
  {
    "compound": "COc1ccc(C[C@H]2COC(=O)[C@@H]2Cc2ccc(O[C@@H]3O[C@H](CO)[C@@H](O)[C@H](O)[C@H]3O)c(OC)c2)cc1OC",
    "study-target": "AdipoR2 (UniProt Q86V24)",
    "IC50": "> 5 µM"
  },
  {
    "compound": "COc1cc2c(c(OC)c1OC)-c1c(cc(OC)c(OC)c1OC)C[C@H](C)[C@H](C)C2",
    "study-target": "AdipoR2 (UniProt Q86V24)",
    "IC50": "3.5 µM"
  },
  {
    "compound": "CN(C)Cc1c[nH]c2ccccc12",
    "study-target": "AdipoR2 (UniProt Q86V24)",
    "IC50": "3.6 µM"
  },
  {
    "compound": "C=C1C(=O)O[C@H]2[C@H]1CC/C(C)=C/CC[C@@]1(C)O[C@@H]21 [Compound 7, Parthenolide]",
    "study-target": "AdipoR2 (UniProt Q86V24)",
    "IC50": "1.5 µM"
  },
  {
    "compound": "COc1cc(C[C@H]2COC(=O)[C@@H]2Cc2ccc(O)c(OC)c2)ccc1O",
    "study-target": "AdipoR2 (UniProt Q86V24)",
    "IC50": "> 5 µM"
  },
  {
    "compound": "COc1cc(/C=C/CO)cc(OC)c1O[C@@H]1O[C@H](CO)[C@@H](O)[C@H](O)[C@H]1O",
    "study-target": "AdipoR2 (UniProt Q86V24)",
    "IC50": "4.6 µM"
  },
  {
    "compound": "COc1cc(C[C@H]2C(=O)OC[C@@H]2Cc2ccc(OC)c(OC)c2)ccc1O [Compound 2, (-)-Arctigenin]",
    "study-target": "AdipoR2 (UniProt Q86V24)",
    "IC50": "> 5 µM"
  }
]
